Taken from ChEMBL document CHEMBL1157820.

target: N1L (Vaccinia virus) (UniProt Q49PX0); assay: Binding affinity to Vaccinia virus recombinant N1L expressed in Escherichia coli BL21 (DE3) assessed as protein melting temperature at 106 uM by differential scanning calorimetry; settings: Orthopoxvirus vaccinia
Kindly state Tm for each of the entries shown.
Give bare numbers, in °C.

- cpdSmiles: "Oc1ccc(/C=N/c2ccccc2/N=C/c2ccc(O)c(O)c2)cc1O"
  Tm [°C]: 52.3
- cpdSmiles: "Oc1cc(C(c2ccccc2)c2ccccc2)c2ccccc2c1O"
  Tm [°C]: 54.9
- cpdSmiles: "COc1cc(-c2ccc3cc(OC)c(OC)c(OC)c3c2)cc(OC)c1OC"
  Tm [°C]: 56.3

compound `Oc1cc(Cc2ccccc2)c(Cc2ccccc2)cc1O` , Tm observed: 48.6
